Test system: KM-H2;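 note: growth inhibition of KM-H2 cells, read out by a cell viability assay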
Assay: cells
Format: functional, cell-based, Homo sapiens
Conditions: Homo sapiens, KM-H2
Description: SANGER: Inhibition of human KM-H2 cell growth in a cell viability assay.
Where a SMILES comes first, the peptide text is derived from it. The star is where a group is joined. Cbz = O=C(OCc1ccccc1)*
OBSERVED_PROPERTY: IC50

- COMPOUND: "COc1ccc(N(C(=O)Oc2c(C)cccc2C)c2ccnc(Nc3ccc(N4CCN(C)CC4)cc3)n2)c(OC)c1"
  DATA_VALUE: "> 5.12 µM"

What the record says about CC(C)C[C@@H](C=O)NC(=O)[C@H](CC(C)C)NC(=O)[C@H](CC(C)C)NC(=O)OCc1ccccc1 [MG-132] (Cbz-Leu-Leu-Leu-aldehyde) : IC50 is > 1 µM

What the record says about CC(C)C[C@H](NC(=O)[C@H](Cc1ccccc1)NC(=O)c1cnccn1)B(O)O : IC50 is > 0.02 µM

What the record says about C=CC(=O)N1CCCC(Nc2nc(Nc3ccc(N(C)C(=O)CC)cc3)nc3[nH]cnc23)C1 (centres undefined) : IC50 is > 10.2 µM
